conditions: in isopropanol, 318.1 K
measured attribute: solubility (mole fraction)

INSERT INTO measurements (cpd_smiles, reading) VALUES
  ('CC(=O)Oc1cc(C)c(OC(C)=O)c2ccccc12', 0.0152);

====

details: in n-pentyl acetate, 308.1 K
measured attribute: solubility (mole fraction)

INSERT INTO results (cpd_smiles, measured_attribute, reading) VALUES
  ('CC(=O)Oc1cc(C)c(OC(C)=O)c2ccccc12', 'solubility (mole fraction)', 0.093);

====

conditions: in isobutanol, 313.1 K
measured attribute: solubility (mole fraction)

INSERT INTO measurements (cpd_smiles, reading) VALUES
  ('CC(=O)Oc1cc(C)c(OC(C)=O)c2ccccc12', 0.0131);

====

conditions: in n-propyl acetate, 308.1 K
measured attribute: solubility (mole fraction)

INSERT INTO assay_data (cpd_smiles, measured_attribute, reading) VALUES
  ('CC(=O)Oc1cc(C)c(OC(C)=O)c2ccccc12', 'solubility (mole fraction)', 0.12);

====

conditions: in isobutanol, 298.1 K
measured attribute: solubility (mole fraction)

INSERT INTO results (cpd_smiles, reading) VALUES
  ('CC(=O)Oc1cc(C)c(OC(C)=O)c2ccccc12', 0.00526);

====

conditions: in n-butyl acetate, 303.1 K
measured attribute: solubility (mole fraction)

INSERT INTO results (cpd_smiles, measured_attribute, reading) VALUES
  ('CC(=O)Oc1cc(C)c(OC(C)=O)c2ccccc12', 'solubility (mole fraction)', 0.0897);

====

details: in n-butanol, 293.1 K
measured attribute: solubility (mole fraction)

INSERT INTO measurements (cpd_smiles, reading) VALUES
  ('CC(=O)Oc1cc(C)c(OC(C)=O)c2ccccc12', 0.00459);

====

conditions: in n-pentanol, 283.1 K
measured attribute: solubility (mole fraction)

INSERT INTO assay_data (cpd_smiles, measured_attribute, reading) VALUES
  ('CC(=O)Oc1cc(C)c(OC(C)=O)c2ccccc12', 'solubility (mole fraction)', 0.00266);

====

conditions: in ethanol, 293.1 K
measured attribute: solubility (mole fraction)

INSERT INTO results (cpd_smiles, reading) VALUES
  ('CC(=O)Oc1cc(C)c(OC(C)=O)c2ccccc12', 0.00532);

====

settings: in n-pentyl acetate, 323.1 K
measured attribute: solubility (mole fraction)

INSERT INTO results (cpd_smiles, reading) VALUES
  ('CC(=O)Oc1cc(C)c(OC(C)=O)c2ccccc12', 0.15);
